These compounds were tested on human thrombin (Homo sapiens); pKi is the recorded read-out.
The meaning of pKi here: minus log10 of the concentration in molar units.

| Compound | System under test | Value reported |
| --- | --- | --- |
| Cc1c(C)c(S(=O)(=O)NCC(=O)NC(Cc2ccc(C(=N)N)cc2)C(=O)N2CCCCC2)c(C)c2c1OC(C)(C)CC2 (centres unmarked) [Pmc--Gly--Aph--Pip, reference compound] | human thrombin (Homo sapiens) | 8.89 |

Given Cc1c(C)c(S(=O)(=O)NNC(=O)N[C@H](Cc2ccc(C(=N)N)cc2)C(=O)N2CCCCC2)c(C)c2c1OC(C)(C)CC2 [Pmc--AGly--Aph--Pip] , state its recorded pKi.
10.04

---

biological target: UniProt:P00734
Property name: pIC50
By convention, pIC50 is the negative base-10 log of a molar concentration.

Could you tell me which pIC50 is on file for Cc1c(C)c(S(=O)(=O)NCC(=O)NC(Cc2ccc(C(=N)N)cc2)C(=O)N2CCCCC2)c(C)c2c1OC(C)(C)CC2 (stereo not shown) [Pmc--Gly--Aph--Pip, reference compound] ?
8.85
